- assayed_target: L-type calcium channels in A10 cells (Rattus norvegicus)
- Construct: which endogenously expresses L-type calcium channels
- test_protocol: L-type Ca2+ channel blocking potency in A10 cells (FLIPR)
- run_parameters: read-out: FLPA10 IC50
Where a name gives a salt, the structure may show the parent alone.
readout_type: IC50 (nM)
Numbers only, in nM.

C[C@H](NC(=O)N1CCCCCC1)C(=O)NCCCC(c1ccc(F)cc1)c1ccc(F)cc1: 1300
CC(C)C[C@H](NCC1CCCCC1)C(=O)NCCCC(c1ccc(F)cc1)c1ccc(F)cc1 [Example 8, monohydrochloride]: 450
CC(C)C[C@@H](NC(=O)N1CCCCCC1)C(=O)NCCCC(c1ccc(F)cc1)c1ccc(F)cc1: 290
CC(C)C[C@@H](CN1CCN(C(c2ccc(F)cc2)c2ccc(F)cc2)CC1)NC(=O)OC(C)(C)C: 360
CC(C)C[C@@H](C(=O)N1CCN(C(c2ccc(F)cc2)c2ccc(F)cc2)CC1)N(C)C1CCOCC1: 780

List the reported IC50 of each compound below.
1. CC(C)C[C@@H](C(=O)NCCCC(c1ccc(F)cc1)c1ccc(F)cc1)N(C)C1CCOCC1 [Example 27, monohydrochloride]
2. CC(C)CCN(C)[C@@H](CC(C)C)C(=O)N1CCN(C(c2ccc(F)cc2)c2ccc(F)cc2)CC1 [Example 46, dihydrochloride]
3. CCC(C)[C@H](NC(=O)N1CCCCCC1)C(=O)NCCCC(c1ccc(F)cc1)c1ccc(F)cc1 (some centres unmarked)

[out]
1. 450
2. 1800
3. 270

----------
- assayed_target: N-type calcium channels in IMR-32 cells (Homo sapiens)
- Construct: host or cells: IMR-32 cells differentiated with dibutyryl cAMP and bromodeoxyuridine
- Sequence (Q00975 whole entry): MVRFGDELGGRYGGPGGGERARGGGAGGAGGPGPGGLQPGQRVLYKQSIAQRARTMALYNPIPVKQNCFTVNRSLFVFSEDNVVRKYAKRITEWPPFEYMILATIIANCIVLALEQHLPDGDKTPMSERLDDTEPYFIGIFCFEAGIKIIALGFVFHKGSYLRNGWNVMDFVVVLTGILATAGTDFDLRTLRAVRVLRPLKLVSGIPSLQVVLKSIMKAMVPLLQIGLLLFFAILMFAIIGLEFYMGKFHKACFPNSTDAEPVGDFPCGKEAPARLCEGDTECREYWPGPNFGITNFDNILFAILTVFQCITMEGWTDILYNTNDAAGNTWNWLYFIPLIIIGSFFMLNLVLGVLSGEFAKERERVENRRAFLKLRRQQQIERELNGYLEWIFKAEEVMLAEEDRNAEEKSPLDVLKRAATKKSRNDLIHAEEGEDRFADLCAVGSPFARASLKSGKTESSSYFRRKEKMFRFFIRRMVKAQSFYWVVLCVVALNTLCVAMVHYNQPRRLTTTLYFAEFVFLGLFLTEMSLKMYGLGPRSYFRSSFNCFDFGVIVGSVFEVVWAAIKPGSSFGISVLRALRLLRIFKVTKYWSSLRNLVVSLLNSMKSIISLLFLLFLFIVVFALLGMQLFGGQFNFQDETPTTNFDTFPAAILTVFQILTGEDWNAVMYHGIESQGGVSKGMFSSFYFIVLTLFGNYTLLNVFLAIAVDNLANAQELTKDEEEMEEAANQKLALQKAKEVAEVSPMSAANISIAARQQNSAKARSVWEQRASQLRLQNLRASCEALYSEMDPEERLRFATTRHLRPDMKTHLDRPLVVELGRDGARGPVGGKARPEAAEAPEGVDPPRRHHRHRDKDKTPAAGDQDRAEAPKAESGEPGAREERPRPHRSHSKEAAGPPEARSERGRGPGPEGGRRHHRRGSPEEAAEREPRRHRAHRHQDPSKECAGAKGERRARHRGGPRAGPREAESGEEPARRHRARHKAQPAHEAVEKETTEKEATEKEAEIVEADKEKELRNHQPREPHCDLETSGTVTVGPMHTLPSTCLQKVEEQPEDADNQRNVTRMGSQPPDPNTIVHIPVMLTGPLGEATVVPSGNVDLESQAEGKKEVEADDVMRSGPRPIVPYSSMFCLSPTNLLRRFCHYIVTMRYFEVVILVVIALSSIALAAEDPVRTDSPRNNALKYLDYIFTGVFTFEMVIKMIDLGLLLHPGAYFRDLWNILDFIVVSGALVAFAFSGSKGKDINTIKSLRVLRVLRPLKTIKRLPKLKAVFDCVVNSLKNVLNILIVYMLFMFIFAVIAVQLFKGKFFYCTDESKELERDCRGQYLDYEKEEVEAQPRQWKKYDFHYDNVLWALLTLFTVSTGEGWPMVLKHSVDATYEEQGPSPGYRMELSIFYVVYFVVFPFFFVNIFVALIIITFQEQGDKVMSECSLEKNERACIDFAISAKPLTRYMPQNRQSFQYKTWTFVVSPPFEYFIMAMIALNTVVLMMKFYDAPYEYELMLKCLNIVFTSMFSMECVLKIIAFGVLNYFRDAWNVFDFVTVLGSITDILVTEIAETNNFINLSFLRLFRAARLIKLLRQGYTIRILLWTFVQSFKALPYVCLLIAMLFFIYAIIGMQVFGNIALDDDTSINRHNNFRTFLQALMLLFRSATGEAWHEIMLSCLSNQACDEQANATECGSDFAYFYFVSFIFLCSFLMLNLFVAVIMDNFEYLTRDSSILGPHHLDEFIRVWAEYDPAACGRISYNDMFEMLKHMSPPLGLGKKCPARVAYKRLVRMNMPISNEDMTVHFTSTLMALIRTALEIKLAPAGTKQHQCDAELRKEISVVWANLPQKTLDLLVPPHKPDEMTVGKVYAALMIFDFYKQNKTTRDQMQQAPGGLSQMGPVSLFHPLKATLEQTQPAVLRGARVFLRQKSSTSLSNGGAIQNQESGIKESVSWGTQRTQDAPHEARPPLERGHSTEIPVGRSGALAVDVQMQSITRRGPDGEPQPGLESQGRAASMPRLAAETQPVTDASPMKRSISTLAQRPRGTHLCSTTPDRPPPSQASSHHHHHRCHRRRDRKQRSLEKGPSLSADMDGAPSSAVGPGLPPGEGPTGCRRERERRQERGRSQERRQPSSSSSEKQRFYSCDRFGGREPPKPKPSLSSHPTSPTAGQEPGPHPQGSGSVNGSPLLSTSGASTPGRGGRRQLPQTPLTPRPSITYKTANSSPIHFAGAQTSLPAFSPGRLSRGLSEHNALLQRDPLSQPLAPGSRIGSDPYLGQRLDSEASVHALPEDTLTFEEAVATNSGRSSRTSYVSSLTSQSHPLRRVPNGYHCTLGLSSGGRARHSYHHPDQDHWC
- Sequence (P54289 25-956 partner limits assumed): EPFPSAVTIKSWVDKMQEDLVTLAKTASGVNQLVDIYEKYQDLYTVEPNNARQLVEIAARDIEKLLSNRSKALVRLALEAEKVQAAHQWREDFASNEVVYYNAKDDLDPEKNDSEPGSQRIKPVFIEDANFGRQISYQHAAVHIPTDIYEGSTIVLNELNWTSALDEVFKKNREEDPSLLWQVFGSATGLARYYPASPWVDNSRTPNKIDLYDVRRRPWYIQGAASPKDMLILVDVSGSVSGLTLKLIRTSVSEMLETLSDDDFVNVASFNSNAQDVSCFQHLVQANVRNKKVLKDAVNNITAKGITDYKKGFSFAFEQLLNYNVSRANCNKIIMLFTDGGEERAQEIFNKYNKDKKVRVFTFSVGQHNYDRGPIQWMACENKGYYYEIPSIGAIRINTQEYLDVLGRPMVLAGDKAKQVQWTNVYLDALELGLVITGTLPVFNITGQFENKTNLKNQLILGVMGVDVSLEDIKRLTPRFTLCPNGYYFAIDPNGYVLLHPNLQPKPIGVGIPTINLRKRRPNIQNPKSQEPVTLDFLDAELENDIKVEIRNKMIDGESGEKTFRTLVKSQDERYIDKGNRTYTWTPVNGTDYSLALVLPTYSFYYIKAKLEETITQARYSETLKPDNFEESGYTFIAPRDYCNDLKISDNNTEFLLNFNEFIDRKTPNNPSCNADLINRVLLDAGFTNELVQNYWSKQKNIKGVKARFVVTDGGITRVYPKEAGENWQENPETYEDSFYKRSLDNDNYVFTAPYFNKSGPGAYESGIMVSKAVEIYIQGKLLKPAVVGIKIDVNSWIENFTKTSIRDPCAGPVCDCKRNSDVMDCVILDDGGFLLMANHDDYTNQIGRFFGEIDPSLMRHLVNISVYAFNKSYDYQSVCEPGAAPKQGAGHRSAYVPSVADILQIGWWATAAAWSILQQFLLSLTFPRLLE
- Sequence (P54289 957-1103 partner limits assumed): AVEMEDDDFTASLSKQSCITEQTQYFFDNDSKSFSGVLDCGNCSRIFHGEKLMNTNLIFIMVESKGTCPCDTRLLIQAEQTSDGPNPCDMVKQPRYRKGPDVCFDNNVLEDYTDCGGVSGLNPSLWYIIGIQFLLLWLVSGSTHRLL
- Sequence (Q02641 whole entry partner): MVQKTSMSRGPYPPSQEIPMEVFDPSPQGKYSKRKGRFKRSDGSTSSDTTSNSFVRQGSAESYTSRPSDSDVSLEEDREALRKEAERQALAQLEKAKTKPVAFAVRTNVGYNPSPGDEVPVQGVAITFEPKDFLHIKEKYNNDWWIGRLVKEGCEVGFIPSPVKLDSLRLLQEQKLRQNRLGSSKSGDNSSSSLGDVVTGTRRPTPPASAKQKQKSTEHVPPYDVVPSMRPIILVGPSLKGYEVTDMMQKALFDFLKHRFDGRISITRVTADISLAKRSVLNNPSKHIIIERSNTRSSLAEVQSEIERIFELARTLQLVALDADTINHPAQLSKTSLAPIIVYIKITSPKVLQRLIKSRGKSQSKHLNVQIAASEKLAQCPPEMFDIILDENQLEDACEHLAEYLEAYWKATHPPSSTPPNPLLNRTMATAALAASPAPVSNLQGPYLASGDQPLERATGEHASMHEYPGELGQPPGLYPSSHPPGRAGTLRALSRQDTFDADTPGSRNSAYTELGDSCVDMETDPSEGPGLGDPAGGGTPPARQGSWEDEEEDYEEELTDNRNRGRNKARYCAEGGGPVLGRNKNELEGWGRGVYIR
- test_protocol: N-type Ca2+ channel blocking potency in IMR-32 cells using Indo-1
- Type: cell-based
- run_parameters: IMR-32 cells; estimated from two data points; read-out: IMR32 IC50 (estimated IC50 values based on two data points)
- Description: Measurement of N-type Ca^2+ Channel Blocking Potencies of Compounds in IMR-32 Cells Using the Fluorescent Ca^2+ Indicator Indo-1 IMR-32 cells are a human tumoral cell line of neural origin. […] Calcium flux into these cells may be induced by stimulation with elevated potassium concentrations. The L-channel component of calcium flux may be blocked by adding 5 μM nitrendipine. […] Intracellular calcium concentrations are measured using the fluorescent calcium indicator Indo-1. […]
Counter-ions that a name gives are not always drawn.
readout_type: pIC50
Numbers only, as −log10 of the molar value.

The following molecules have reported results that may help.
CC(C)C[C@@H](C(=O)N1CCN(C(c2ccc(F)cc2)c2ccc(F)cc2)CC1)N1CCCCC1: 5.70
CC(C)C[C@H](NC(=O)N1CCN(c2ccccc2)CC1)C(=O)NCCCC(c1ccc(F)cc1)c1ccc(F)cc1: 5.70

Your task in this section: give pIC50 for each listed record.
1. CCC(C)[C@H](NC(=O)N1CCCCCC1)C(=O)NCCCC(c1ccc(F)cc1)c1ccc(F)cc1 (stereo partly drawn)
2. CC(C)C[C@@H](C(=O)NCCCC(c1ccc(F)cc1)c1ccc(F)cc1)N(C)C1CCOCC1 [Example 27, monohydrochloride]
3. CC(C)C[C@H](NC(=O)N1CCCCCC1)C(=O)N1CCN(C2c3ccccc3-c3ccccc32)CC1
4. CC(C)C[C@H](NC1CCOCC1)C(=O)NCCCC(c1ccc(F)cc1)c1ccc(F)cc1
5. CC(C)C[C@H](NC(=O)N1CCN(c2ccccc2)CC1)C(=O)N1CCN(C(c2ccc(F)cc2)c2ccc(F)cc2)CC1
6. CC(C)[C@H](NC(=O)N1CCCCCC1)C(=O)NCCCC(c1ccc(F)cc1)c1ccc(F)cc1

[out]
6.21
5.92
5.82
5.70
6.39
6.08

----------
Where a name gives a salt, the structure may show the parent alone.
readout_type: melting point

CC(C)C[C@@H](C(=O)NCCCC(c1ccc(F)cc1)c1ccc(F)cc1)N(C)Cc1ccc(C(C)(C)C)cc1.Cl [Example 14]: 87 to 95 °C
CC(C)CCN(CCC(C)C)[C@@H](Cc1ccccc1)C(=O)N1CCN(C(c2ccc(F)cc2)c2ccc(F)cc2)CC1.Cl [Example 56]: 139 to 181 °C
CC(C)C[C@H](NC(=O)N1CCCCCC1)C(=O)NCCC(c1ccccc1)c1ccccc1 [Example 5]: 144 to 145 °C
CC(C)C[C@H](NC(C)C)C(=O)NCCCC(c1ccc(F)cc1)c1ccc(F)cc1 (as salt: hydrochloride) [Example 19, monohydrochloride]: 100 to 103 °C

Continue with the compound presented below.
[in] GET /values?readout=melting point&item= CC(C)C[C@H](NC(=O)N1CCN(C)CC1)C(=O)NCCCC(c1ccc(F)cc1)c1ccc(F)cc1 [Example 29]
[out] 73 to 91 °C

----------
- assayed_target: L-type calcium channels in A10 cells (Rattus norvegicus)
- Construct: which endogenously expresses L-type calcium channels; host or cells: A10 rat embryonic thoracic aorta smooth muscle cells
- test_protocol: L-type Ca2+ channel blocking potency in A10 cells (FLIPR)
- Assay type: cell-based
- run_parameters: read-out: FLPA10 IC50
- Experimental: Measurement of L-type Ca^2+ Channel Blocking Potencies of Compounds in A10 Cells Calcium flux through voltage-sensitive calcium channels was assessed by time-resolved monitoring of the fluorescence of pre-loaded calcium-sensitive dyes using FLIPR, a fluorescent image plate reader (Molecular Devices Co.). The A10 smooth muscle cell line derived from embryonic thoracic aorta of the DBIX rat (ATCC, CRL-1476) which endogenously expresses L-type calcium channels. […]
Field: pIC50. Provide a value for each of the molecules that follow.
One number for each entry, as −log10 of the molar value.

Answered cases to consult:
CC(C)C[C@@H](NC(=O)N1CCCCCC1)C(=O)N1CCN(C(c2ccc(F)cc2)c2ccc(F)cc2)CC1 [Example 34]: 6.20
CC(C)C[C@H](NC(=O)N1CCN(C)CC1)C(=O)NCCCC(c1ccc(F)cc1)c1ccc(F)cc1 [Example 29]: 5.92

From here, focus on the item given below.
[in] Given CC(C)C[C@H](NC(=O)N1CCCCCC1)C(=O)N1CCN(C(c2ccccc2)c2ccccc2)CC1 [Example 48] , state its recorded pIC50.
[out] 5.77

----------
- assayed_target: N-type calcium channels in IMR-32 cells (Homo sapiens)
- Construct: host or cells: IMR-32 cells differentiated with dibutyryl cAMP and bromodeoxyuridine
- test_protocol: N-type Ca2+ channel blocking potency in IMR-32 cells using Indo-1
- Assay type: cell-based
- run_parameters: IMR-32 cells; estimated from two data points; read-out: IMR32 IC50 (estimated IC50 values based on two data points)
Counter-ions that a name gives are not always drawn.
Please note: IC50 exactly at 700 nM is F. Only values below 700 nM get T.

Use the examples below as a reference point.
CC(C)C[C@@H](CN1CCN(C(c2ccc(F)cc2)c2ccc(F)cc2)CC1)NC(=O)N1CCCCCC1: T
CC(C)CCN(C)[C@@H](CC(C)C)C(=O)N1CCN(C(c2ccc(F)cc2)c2ccc(F)cc2)CC1 [Example 46, dihydrochloride]: T
CCC(C)[C@H](NC(=O)N1CCCCCC1)C(=O)N1CCN(C(c2ccc(F)cc2)c2ccc(F)cc2)CC1 (stereo partly shown): T
CC(C)C[C@@H](C(=O)N1CCN(C(c2ccc(F)cc2)c2ccc(F)cc2)CC1)N(C)C1CCOCC1: F
CC(C)C[C@@H](CN1CCN(C(c2ccc(F)cc2)c2ccc(F)cc2)CC1)NC(=O)OC(C)(C)C: T

[in] Is 700 nM strictly greater than the compound's reported IC50? compound: CC(C)C[C@@H](C(=O)N1CCN(C(c2ccc(F)cc2)c2ccc(F)cc2)CC1)N(C)C [Example 39, dihydrochloride]
[out] F

[in] IC50 under 700 nM? Item: CC(C)C[C@H](NC(C)C)C(=O)N1CCN(C(c2ccc(F)cc2)c2ccc(F)cc2)CC1 [Example 49, monohydrochloride]
[out] F

[in] A record lists `CC(C)C[C@@H](C(=O)N1CCN(C(c2ccc(F)cc2)c2ccc(F)cc2)CC1)N1CCOCC1` . Is its IC50 below 700 nM?
[out] F

[in] Decide: IC50 of `CC(C)C[C@H](NC(=O)N1CCCCCC1)C(=O)N1CCN(C(c2ccccc2)c2ccccc2)CC1` strictly below 700 nM?
[out] F
